# target desc: Aminopeptidase N (Plasmodium falciparum (isolate 3D7)) (UniProt O96935)
# Sequence (O96935 whole entry, looked up): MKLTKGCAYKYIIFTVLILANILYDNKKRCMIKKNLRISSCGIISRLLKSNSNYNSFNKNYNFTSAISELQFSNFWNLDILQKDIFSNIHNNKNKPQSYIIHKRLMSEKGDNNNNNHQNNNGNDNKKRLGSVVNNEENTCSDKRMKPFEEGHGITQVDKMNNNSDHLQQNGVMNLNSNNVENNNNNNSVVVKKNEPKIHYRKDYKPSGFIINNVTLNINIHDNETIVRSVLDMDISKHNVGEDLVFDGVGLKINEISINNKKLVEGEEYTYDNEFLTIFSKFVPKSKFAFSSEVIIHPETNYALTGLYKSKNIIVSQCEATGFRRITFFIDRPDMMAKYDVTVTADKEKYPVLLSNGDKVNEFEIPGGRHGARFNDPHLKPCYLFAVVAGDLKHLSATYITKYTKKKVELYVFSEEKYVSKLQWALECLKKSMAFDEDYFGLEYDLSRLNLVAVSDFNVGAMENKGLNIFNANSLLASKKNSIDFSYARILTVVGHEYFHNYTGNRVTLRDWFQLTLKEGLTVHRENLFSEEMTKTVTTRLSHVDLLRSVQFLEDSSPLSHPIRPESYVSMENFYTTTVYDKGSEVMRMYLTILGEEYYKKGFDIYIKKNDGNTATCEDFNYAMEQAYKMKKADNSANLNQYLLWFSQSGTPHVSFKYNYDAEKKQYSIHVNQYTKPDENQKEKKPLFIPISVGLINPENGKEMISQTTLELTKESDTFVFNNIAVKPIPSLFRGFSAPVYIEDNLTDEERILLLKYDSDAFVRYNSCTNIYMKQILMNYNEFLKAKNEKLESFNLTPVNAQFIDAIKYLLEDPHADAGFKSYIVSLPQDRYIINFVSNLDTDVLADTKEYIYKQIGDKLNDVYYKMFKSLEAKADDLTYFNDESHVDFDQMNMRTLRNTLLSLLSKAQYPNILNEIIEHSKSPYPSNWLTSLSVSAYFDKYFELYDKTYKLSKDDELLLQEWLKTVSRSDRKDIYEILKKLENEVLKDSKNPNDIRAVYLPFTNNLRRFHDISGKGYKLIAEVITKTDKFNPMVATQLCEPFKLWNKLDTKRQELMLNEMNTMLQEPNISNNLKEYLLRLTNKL
# experiment: malaria alanyl aminopeptidase activity blockers – biochemical, fluorogenic H-Leu-NHMec substrate, 1536-well (AID 1445);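 also: plate controls were DMSO full reaction for no effect and no enzyme background for full effect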
# recorded conditions: recombinant M1AAP, H-Leu-NHMec fluorogenic kinetic assay; at 30 µM, hits give high values unless noted
In all, about 220,000 compounds went through this assay and about 910 (0.41%) were called active. Shown is part of a subset that was picked to be rich in actives. Measured potencies and affinities stand elsewhere.
Output MET for inhibition not less than 5%; output NOT MET otherwise.

COc1ccc(OCCC(=O)OCC(=O)Nc2cccc(Br)c2)cc1 :: NOT MET

Does CC(C)NS(=O)(=O)c1ccc(CCC(=O)NCc2cccnc2)cc1 have a reported inhibition of at least 5%?
NOT MET

Now the compound CCCN(CCC)C1CC(=O)N(Cc2ccccc2)C1=O (configuration not stated)
NOT MET

Next entry: CCCOc1nc2c(c(=O)n(C)c(=O)n2C)n1CCC
MET

Next record, please: CN(C)S(=O)(=O)c1ccc(N2CCOCC2)nc1
MET

Follow-up item: Cc1[nH]c2ccccc2c1/C=N/NC(=O)CNC(=O)c1cccs1
NOT MET

And the next one, COC(=O)c1sccc1NC(=O)CSCCc1ccccn1 ?
NOT MET

* * *

# target desc: Aminopeptidase N (Plasmodium falciparum (isolate 3D7))
# experiment: malaria alanyl aminopeptidase activity blockers – biochemical, fluorogenic H-Leu-NHMec substrate, 1536-well (AID 1445);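 also: plate controls were DMSO full reaction for no effect and no enzyme background for full effect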
# recorded conditions: recombinant M1AAP, H-Leu-NHMec fluorogenic kinetic assay; at 30 µM, hits give high values unless noted
Among all 220,000 compounds or so, about 910 (0.41%) were called active. The sample holds actives, similar compounds and a random draw of the others, so the mix is not that of the screen. Entries with a potency or affinity are not part of this list.
property label: inhibition (%)
State just the number; it will be interpreted in %.

// known answers, use as guide
O=C(N/N=C/c1cc(Cl)cc([N+](=O)[O-])c1O)C1CC1 :: 29.8
CCN(CC)S(=O)(=O)c1cccc(-c2n[nH]c(=S)n2/N=C/c2ccc(OC)cc2)c1 :: 13.1
CC(C)(C)NC(=O)CSc1nnc(SCC(=O)NC(C)(C)C)s1 :: 1.09
CN(C)c1ccc(/C=N/NC(=O)CCCO)cc1 :: 16.7
O=C(CSc1nnc(-c2ccccc2)n1Cc1ccccc1)NNC(=O)c1ccccc1O :: 16.1

# get_value(readout='inhibition', item= O=C(CSc1ncnc2scc(-c3ccccc3)c12)Nc1ccc(C(=O)O)cc1 )
7.21

And for COc1ccc(-c2cc(C#N)nc(Oc3ccc(Cl)cc3)n2)cc1 ?
6.45

Entry to check: NC(=O)N/N=C/c1cn(-c2ccccc2)nc1-c1cccs1
4.92

Same question for CCn1cc(CNC(=O)CSc2nc(-c3ccc(OC)c(OC)c3)cc(C(F)(F)F)n2)c(C)n1 please.
8.78

* * *

# target desc: Aminopeptidase N (Plasmodium falciparum (isolate 3D7))
# experiment: malaria alanyl aminopeptidase activity blockers – biochemical, fluorogenic H-Leu-NHMec substrate, 1536-well (AID 1445);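 also: plate controls were DMSO full reaction for no effect and no enzyme background for full effect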
# recorded conditions: recombinant M1AAP, H-Leu-NHMec fluorogenic kinetic assay; at 30 µM, hits give high values unless noted
Screen size: about 220,000 compounds; about 910 (0.41%) were called active. Shown is part of a subset that was picked to be rich in actives. Measured potencies and affinities stand elsewhere.
property label: inhibition (%)
Express the result in % but write the number alone.

O=C(Cn1cc(C(F)(F)F)ccc1=O)N1CCN(S(=O)(=O)c2ccc(Cl)cc2)CC1 :: 0.58
O=C(Nc1ccccc1)c1ccc2nc(-c3ccco3)c(-c3ccco3)nc2c1 :: 13.6
Cc1cc(=O)n(-c2ccc(Cl)cc2)c(=O)[nH]1 :: -2
Cc1sc2ncnc(SCc3ccc(C(=O)O)cc3)c2c1C :: 8.46
COCc1nnc(NS(=O)(=O)c2ccc([N+](=O)[O-])cc2)s1 :: 2.64

Given the compound CCCCC1NC(C(=O)O)CS1 (configuration not stated) , what is its reported inhibition?
-4.57

Cool, now Cn1cc([N+](=O)[O-])c(C(=O)NNC(=O)c2ccc([N+](=O)[O-])cc2)n1
1.97
